List of IC50 tested on KDM5B (PLU-1) (Homo sapiens).
Sequence (Q9UGL1 1-809): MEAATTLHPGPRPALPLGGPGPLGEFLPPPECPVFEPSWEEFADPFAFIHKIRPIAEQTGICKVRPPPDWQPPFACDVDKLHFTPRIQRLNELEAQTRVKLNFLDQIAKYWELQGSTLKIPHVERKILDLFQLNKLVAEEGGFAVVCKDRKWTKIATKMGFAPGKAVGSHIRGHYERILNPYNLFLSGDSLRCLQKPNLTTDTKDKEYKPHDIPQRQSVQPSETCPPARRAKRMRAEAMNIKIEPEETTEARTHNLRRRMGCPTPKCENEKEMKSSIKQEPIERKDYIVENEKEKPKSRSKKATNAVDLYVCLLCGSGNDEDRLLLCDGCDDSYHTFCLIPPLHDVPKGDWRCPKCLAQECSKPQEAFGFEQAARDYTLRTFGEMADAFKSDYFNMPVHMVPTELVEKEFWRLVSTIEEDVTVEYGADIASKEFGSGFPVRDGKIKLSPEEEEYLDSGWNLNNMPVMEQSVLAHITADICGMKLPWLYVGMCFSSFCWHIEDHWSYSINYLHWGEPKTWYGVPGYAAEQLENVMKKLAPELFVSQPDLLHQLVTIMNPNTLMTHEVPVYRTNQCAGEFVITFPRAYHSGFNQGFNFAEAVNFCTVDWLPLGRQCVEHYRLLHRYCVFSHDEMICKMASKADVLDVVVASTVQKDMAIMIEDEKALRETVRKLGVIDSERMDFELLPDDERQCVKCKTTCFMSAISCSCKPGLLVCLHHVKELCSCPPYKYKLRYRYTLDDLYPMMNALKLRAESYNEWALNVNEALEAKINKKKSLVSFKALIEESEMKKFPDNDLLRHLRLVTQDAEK

# count of solved cases: 3
{"molecule": "O=C(O)c1ccnc(CNC2CCc3c(Cc4ccccc4)ccnc32)c1 (stereo not drawn)", "IC50": "< 250 nM"}
{"molecule": "CC(C)C[C@@H]1[C@@H](O)CC(C)N1Cc1cc(C(=O)O)ccn1 (stereo partly drawn)", "IC50": "250 to 2500 nM"}
{"molecule": "C=Cc1ccnc2c1CCC2NCc1cc(C(=O)O)ccn1 (stereo not drawn)", "IC50": "< 250 nM"}

Input CC(C)C[C@@H](CO)NCc1cc(C(=O)O)ccn1 . Output IC50: < 250 nM

Item: O=C(O)c1ccnc(CN2CCC(c3ccc(F)cc3)n3ccnc3C2)c1 (stereo not drawn) | IC50: 250 to 2500 nM

Form field IC50, entry O=C(O)c1ccnc(CN2CC[C@H]2CO)c1 : 250 to 2500 nM

For record C=CCN(CC=C)C(=O)[C@H](CCS(C)(=O)=O)NCc1cc(C(=O)O)ccn1 the listed IC50 is > 2500 nM

Lookup result for O=C(O)c1cnnc(CNCC(=O)N2CCCCC2)c1 ; measured IC50: < 250 nM

The recorded IC50 for entry COc1ccc([C@@H](C)N2CCC[C@H](CNCc3cc(C(=O)O)ccn3)C2=O)cc1 equals < 250 nM
